Values were extracted from the METLIN SMRT retention time set (Domingo-Almenara et al. 2019).

Quick list: RP-LC retention time per entry.
experimental.protocol: gradient 5% acetonitrile 3 min, to 50% in 2 min, to 85% in 15 min, held 3 min, 100 µL/min
details: column: Zorbax Extend-C18 2.1 x 50 mm; eluents: water / acetonitrile, 0.1% formic acid

molecule | RP-LC retention time (s)
COc1ccc(C)cc1NC(=O)N1CCC2(CC1)NC(=O)c1ccccc1N2C | 807
CCOc1ccc2nc(SCC(=O)Nc3nccs3)[nH]c2c1 | 622
Cc1noc(C)c1C1CCCN1C(=O)Cc1cccc(F)c1 (centres undefined) | 777
O=C1CCc2cc(NC(=O)c3ccc([N+](=O)[O-])cc3Cl)ccc2N1 | 807
Cc1ccc(-c2ccc(-n3nc(C)c(S(=O)(=O)NCCN4CCCCC4C)c3C)nn2)cc1C (centres undefined) | 748
CCOc1ccccc1NC(=O)N1CCc2cn(CCOC)c3cccc(c23)C1 | 827
Cc1nc(-c2ccc(-c3noc(CNC(=O)c4ccccc4)n3)cc2)cs1 | 902
CCC(NC(=O)c1ccc2c(c1)nc1n2CCN(C2CCCCC2)C1=O)c1cccs1 (centres undefined) | 851
Cc1cc(OCC(=O)Nc2ccc(C)c(C)c2)nc(N2CCN(c3ccccc3)CC2)n1 | 911
COc1ccc(-c2nn(CCCC(=O)NCCc3ccc(C)cc3)c(=O)c3noc(C)c23)cc1 | 950
Cc1nnc(C(C)C)n1C1C[C@H]2CC[C@@H](C1)N2CC[C@H](NC(=O)C1CCC(F)(F)CC1)c1ccccc1 (some centres undefined) | 666
O=C(Cn1c(=O)c(=O)n(Cc2ccc(Cl)cc2)c2ccccc21)N1CCN(c2ccccn2)CC1 | 654
CCN1CCN(CCNC(=O)C2CCN(Cc3cn(C)c4ccc(Cl)cc34)CC2)CC1 | 561
COc1cc(=O)n(-c2ccccc2)nc1C(=O)N1c2ccc(F)cc2CCC1C (centres undefined) | 866
O=C(NCCN1CCOCC1)C1CCN(S(=O)(=O)c2ccc(-c3noc(C4CC4)n3)cc2)CC1 | 642
NC(=O)c1cccc2cn(-c3ccc([C@@H]4CCCNC4)cc3)nc12 | 630
C=CCNC(=O)c1cc2n(n1)CCCC2 | 646
CCC(=O)N1CCc2cc(C(=O)N(C)C)ccc21 | 673
CCCN1CCN(Cc2nc3nc(C)cc(N4CCCCCC4)n3n2)CC1 | 587
